# Test system: MCF7 breast
# TEST DESCRIPTION: NCI tumour cell line growth inhibition, 48 h
MEASUREMENT NAME: TGI

O=C1NCC2(CCNCC2)N1 :: > 100 µM

Value sought for every listed molecule: TGI.
1. CCCCC/C=C\C/C=C/CCCCCCCCNC(=O)Nc1ccc([N+](=O)[O-])cc1
2. O=C(Nn1c(-c2ccccc2)nc2ccccc2c1=O)c1ccc(O)cc1
3. Cc1nn(-c2ccccc2)c(C)c1/C=N/N1CCN(Cc2ccccc2)CC1
4. O=c1[nH]cnc2c1ncn2C1SC(CO)C(O)C1O (stereo unspecified)
5. CNC(=O)c1c(NC(=O)c2ccc(C(C)C)cc2)sc2c1CCC(=O)C2

Result:
["> 100 µM", "> 100 µM", "> 100 µM", "> 100 µM", "5.32 µM"]

* * *

# Test system: NCI/ADR-RES ovarian
# TEST DESCRIPTION: NCI tumour cell line growth inhibition, 48 h
Exercise: state measured TGI for each of the molecules provided.

In the examples that follow, each entry is paired with its recorded TGI.
COc1ccc2cc(C(=O)/C=C/c3ccco3)ccc2c1 :: 63.8 µM
O=C(/C=C/c1cccs1)c1ccc(Cl)s1 :: > 100 µM
COc1ccc2[nH]cc(CN3CCC(CO)(c4ccccc4)CC3)c2c1 :: > 100 µM
Cc1cn2c(/C=N/N=C(N)N)c(-c3cc(Cl)sc3Cl)nc2s1 :: 13.3 µM
CN1CC(S(=O)(=O)c2ccccc2)CC(S(=O)(=O)c2ccccc2)C1c1ccccc1 (centres undefined) :: > 100 µM
Cc1ccc2nc(CC(=O)c3ccc4ccccc4c3)c(=O)[nH]c2c1 :: > 100 µM

Value sought for every listed molecule: TGI.
1. COc1ccc(C(=O)c2cc(OC)c(OC)c(OC)c2)cc1/C=C/C(=O)c1ccc2c(c1)OCO2
2. CS(=O)(=O)c1ccc(-c2[nH]c3ccc(F)cc3c2/C=N/NC(N)=S)cc1

Result:
["15.2 µM", "> 100 µM"]

Value sought for every listed molecule: TGI.
1. Cc1cn(C2CC(N=[N+]=[N-])C(CO)O2)c(=O)n(CCCCO)c1=O (centres undefined)
2. O=C(/C=C/c1ccc(O)cc1)c1cc(O)cc(O)c1
3. CC(=O)NC(CCCOC(C)=O)C(=O)NC(CCCOC(C)=O)C(=O)NC(CCCOC(C)=O)C(=O)NC(Cc1ccc([N+](=O)[O-])cc1)C(=O)NCC(=O)OCc1ccccc1 (centres undefined)
4. COC(=O)CCSC1=CC(=O)c2nc3ccccc3c3ccnc1c23

Result:
["> 100 µM", "> 100 µM", "> 100 µM", "46.6 µM"]

* * *

# System: HL-60(TB) leukemia
# TEST DESCRIPTION: NCI tumour cell line growth inhibition, 48 h
MEASUREMENT NAME: GI50

Value sought for every listed compound: GI50.
1. CC#CC(=O)N[C@H]1CCCN(c2c(F)cc(C(N)=O)c3[nH]c(C)c(C)c23)C1
2. COCO[C@@H]1CC2C=Nc3cc(OCc4ccccc4)c(OC)cc3C(=O)N2C1 (stereo not given in full)
3. COc1cc([N+](=O)[O-])c(OC)cc1-c1nc2n(c1/C(N)=N/C(=N)N)CCS2
4. N=C(N)c1ccc(-c2ccc(-c3ccc(Cl)c(Cl)c3)o2)nc1
5. C=CCCC(O)c1ccc(CCCCCCCCCCC)o1 (stereo not given)

Result:
21.4 µM
0.486 µM
> 100 µM
2.24 µM
39.2 µM

* * *

# Test system: RXF 393 renal
# TEST DESCRIPTION: NCI tumour cell line growth inhibition, 48 h
MEASUREMENT NAME: log10 TGI (log10 of the value in µM)
The figures below represent log10 of TGI, where TGI is stated in µM.

In the examples that follow, each entry is paired with its recorded log10 TGI.
CCCCC/C=C\C/C=C/CCCCCCCCNC(=O)Nc1ccc([N+](=O)[O-])cc1 :: 1.87
CNC(=O)c1c(NC(=O)c2ccc(C(C)C)cc2)sc2c1CCC(=O)C2 :: 0.14

Value sought for every listed compound: log10 TGI.
1. Cc1ccc(C(=O)c2[nH]c(Nc3ccc(Cl)cc3)c(C(=S)Nc3ccccc3)c2N)cc1
2. COc1ccc2cc(C(=O)/C=C/c3ccco3)ccc2c1
3. C/C=C(\C)C(=O)OC1C2C(C)C(=O)OC2C(O)C(C)C2C=CC(=O)C21C (stereo not drawn)
4. Cc1[nH]c2ccccc2c1C1=CC(=O)C=CC1=O
5. COc1ccc2c(c1)c(-c1nc(-c3cn(C)c4ncccc34)cs1)cn2CCCCN1CCOCC1

Result:
1: 1.24; 2: 1.59; 3: 1.39; 4: 1.36; 5: 0.42

* * *

# Test system: MCF7 breast
# TEST DESCRIPTION: NCI tumour cell line growth inhibition, 48 h
Where a SMILES comes first, the peptide text is derived from it. [ ]: non-standard residue; d: D form. The star is where a group is joined. ξ: configuration not given here. ξW = NC(Cc1c[nH]c2ccccc12)C(=O)O; X30 = O=C(O)[C@H]1CCC[C@H]1N*; ξF = NC(Cc1ccccc1)C(=O)O; Boc = CC(C)(C)OC(=O)*; ξK = NCCCCC(N)C(=O)O; ξT = CC(O)C(N)C(=O)O; tBu = CC(C)(C)*
MEASUREMENT NAME: TGI

Value sought for every listed compound: TGI.
1. Nc1ccc(-c2nc3ccccc3s2)cc1F
2. C(=C\c1nc2ccccc2s1)/c1ccc(N2CCOCC2)s1
3. CC#CC(=O)N[C@H]1CCCN(c2c(F)cc(C(N)=O)c3[nH]c(C)c(C)c23)C1
4. COc1cc(C2C(C(=O)OCc3ccccc3)=C(C)NC(C)=C2C(=O)OCc2ccccc2)cc(OC)c1OC
5. O=C(c1ccncc1)N1CCN(C2=NS(=O)(=O)c3ccccc3N2c2ccccc2)CC1
6. Cc1[nH]c2ccccc2c1C1=CC(=O)C=CC1=O
7. CC(OC(C)(C)C)C(NC(=O)C(CCCCNC(=O)OC(C)(C)C)NC(=O)C(Cc1c[nH]c2ccccc12)NC(=O)C(N)Cc1ccccc1)C(=O)NC(Cc1ccccc1)C(=O)N[C@@H]1CCC[C@@H]1C(=O)O (stereo partly drawn) (H-[ξF][ξW][ξK](Boc)[ξT](tBu)[ξF]-X30)
8. Cc1ccc(N=Nc2c(C)nn(C(=O)CC(=O)Nc3ccc(Cl)cc3)c2C)cc1C

Result:
1. > 100 µM
2. > 100 µM
3. 36 µM
4. > 100 µM
5. > 100 µM
6. 28.8 µM
7. 62.5 µM
8. > 100 µM

* * *

Exercise: state measured GI50 for each of the molecules provided.
# System: NCI-H522 lung
# TEST DESCRIPTION: NCI tumour cell line growth inhibition, 48 h

O=c1cc(-c2ccccc2)nc2cc(-c3ccco3)[nH]n12 :: 6770 nM
Cc1[nH]c2ccccc2c1C1=CC(=O)C=CC1=O :: 1660 nM
COc1ccc2c(c1)c(-c1nc(-c3cn(C)c4ncccc34)cs1)cn2CCCCN1CCOCC1 :: 1770 nM
CS(=O)(=O)c1ccc(-c2[nH]c3ccc(F)cc3c2/C=N/NC(N)=S)cc1 :: 466 nM

Below: the item to evaluate.
Ask: // returns reported GI50 for input O=C(Nc1ccc(O)c(NS(=O)(=O)c2ccc(F)cc2)c1)c1ccc(-c2ccccc2)cc1
Result: 2270 nM

* * *

# Test system: OVCAR-4 ovarian
# TEST DESCRIPTION: NCI tumour cell line growth inhibition, 48 h; in the data active means GI50 below about 0.43 µM; inactive means the rest
Hello, when you answer, please use one of the following outcomes: Yes (active), No (inactive)

A selection of reference data follows.
O=C(Nc1cccc(-n2cc(-c3ccncc3)c(-c3ccc(O)c(Cl)c3)n2)c1)c1ccc(N2CCOCC2)c(C(F)(F)F)c1 :: No
CC(C)NCCCCCNc1cc(O)cc2cccnc12 :: No
COC(=O)c1cc(NC(=O)CN(CCN(CC(=O)O)CC(=O)Nc2ccc(O)c(C(=O)OC)c2)CC(=O)O)ccc1O :: No

Ask: Status in this test for CS(=O)(=O)c1ccc(-c2[nH]c3ccc(F)cc3c2/C=N/NC(N)=S)cc1 ?
Result: No

Ask: Status in this test for CN1CCN(CCCN2c3ccccc3Sc3ccc(C(F)(F)F)cc32)CC1 ?
Result: No

Ask: Status in this test for COc1cc([N+](=O)[O-])c(OC)cc1-c1nc2n(c1/C(N)=N/C(=N)N)CCS2 ?
Result: No

* * *

Exercise: state measured TGI for each of the molecules provided.
# System: NCI-H226 lung
# TEST DESCRIPTION: NCI tumour cell line growth inhibition, 48 h

In the examples that follow, each entry is paired with its recorded TGI.
CCCC(=O)Nc1ncnc2c1ncn2C1OC2COP(=O)(O)OC2C1OC(=O)CCC (stereo not given) :: > 1000 µM
NN/C(=N\S(=O)(=O)c1cccc2nsnc12)Nc1ccc(Cl)cc1 :: > 100 µM
CCC[CH2][Ge]([CH2]CCC)([CH2]CCC)[O]C(=O)C(OC(C)=O)c1ccccc1 (stereo not given) :: 19.7 µM

Value sought for every listed molecule: TGI.
1. CC(=O)Nc1ccc(S(=O)(=O)c2ccc(NC(C)=O)cc2)cc1
2. CCC(C)C(NC(=O)c1c2ccccc2nc2ccccc12)C(=O)O (stereo not given)

Result:
1: > 100 µM; 2: > 100 µM
